Tested on: A549 NSCLC
MEASUREMENT_NOTES: NCI tumour cell line growth inhibition, 48 h
Each item that follows carries a reported GI50.
ASSAY_READOUT: GI50

CCCCCCCCNc1cc2c3c(c1)CCCN3CCC2
4.26 µM
COc1ccc(C(=S)N2CCN(c3cccc(C)c3)CC2)cc1OC
6.37 µM
C[C@]12CC[C@@H]3c4ccc(OC(=O)N(CCCl)CCCl)cc4CC[C@H]3[C@@H]1CC[C@@H]2O
2.46 µM
O=C1C(Cl)=C(Nc2cccc(F)c2)C(=O)N1Cc1ccc(Cl)cc1
1.73 µM
CN(CCO)CC[C@H](CSc1ccccc1)Nc1ccc(S(=O)(=O)NC(=O)c2ccc(N3CCC([C@@H](O)c4ccccc4-c4ccc(Cl)cc4)CC3)cc2)cc1S(=O)(=O)C(F)(F)F
> 100 µM
C/C=C(\C)C(=O)NC1=CC[C@@]2(C)C(=CCC3C2CC[C@@]2(C)C3CC[C@@H]2C(C)N(C)C)C1=O (stereo partly specified)
4.99 µM

====

Test system: HCT-15 colon
MEASUREMENT_NOTES: NCI tumour cell line growth inhibition, 48 h; in the data active = GI50 below about 0.43 µM; inactive = the rest
Where a SMILES comes first, the peptide text is derived from it. [ ]: non-standard residue; d: D form. pGlu = O=C1CC[CH](C(=O)O)N1
Labels: Y = active, N = inactive

CC1(C)C2CCC13C(=O)C1OC3(C2)C2C(=O)c3cc4ccccc4cc3C(=O)C12 (configuration not stated)
N
CCNC(=O)C1CCCN1C(=O)C(CCCN=C(N)N)NC(=O)C(CC(C)C)NC(=O)C(CC(C)C)NC(=O)C(Cc1ccc(O)cc1)NC(=O)C(CO)NC(=O)C(Cc1c[nH]c2ccccc12)NC(=O)C(Cc1cnc[nH]1)NC(=O)C1CCC(=O)N1 (configuration not stated) ([pGlu]HWSYLLRP-NHEt; configuration not given here)
N
O=C(CCCCCCNC(=O)c1cnc(N(c2ccccc2)c2ccccc2)nc1)NO
N
OC(Cc1ccncc1)C(Cl)(Cl)Cl (configuration not stated)
N
Oc1c(-c2nnc(-c3ccccc3Cl)o2)sc2nnc(-c3ccccc3)c(-c3ccccc3)c12
N
CCOC(=O)Nc1ccc2c(c1)/C(=N\NC(N)=S)c1ccccc1-2
N
C[C@@]1(C(=O)O)CCC[C@]2(C)C1CC[C@@]13CC(=O)[C@@](CO)(CC[C@]12O)C3 (some centres not stated)
N
CN(CCO)CC[C@H](CSc1ccccc1)Nc1ccc(S(=O)(=O)NC(=O)c2ccc(N3CCC([C@@H](O)c4ccccc4-c4ccc(Cl)cc4)CC3)cc2)cc1S(=O)(=O)C(F)(F)F
N
C[C@H](NC(=O)[C@@H](C)N)[C@H](Oc1ccc2c(cnn2-c2ccc(F)cc2)c1)c1ccc2c(c1)OCCO2
N
C=CCN=c1sc2c(n1NC(=O)c1cc3ccc1CCc1ccc(cc1)CC3)C(=O)c1ccccc1C2=O
N
Clc1nc(Cl)c2ncn(CC3(Cn4cnc5c(Cl)nc(Cl)nc54)COC3)c2n1
Y
NS(=O)(=O)c1ccc(-n2nc(-c3ccc(Cl)cc3)cc2-c2cc(O)ccc2O)cc1
N

====

In this section we review reported GI50 values for a set of compounds.
Test system: HS 578T breast
MEASUREMENT_NOTES: NCI tumour cell line growth inhibition, 48 h
ASSAY_READOUT: GI50

O=C1C(Cl)=C(Nc2cccc(F)c2)C(=O)N1Cc1ccc(Cl)cc1
2860 nM
Clc1nc(Cl)c2ncn(CC3(Cn4cnc5c(Cl)nc(Cl)nc54)COC3)c2n1
316 nM
C[C@]12C[C@H](CCCCCCNCCOC(=O)NCCCc3ccc(N(CCCl)CCCl)cc3)C3=C4CCC(=O)C=C4CCC3C1CC[C@@H]2O (some centres not stated)
1660 nM
CCN(Cc1ccc(Cl)cc1)c1ccc(CO)c(Cl)c1
6090 nM
CC[C@@H]1c2c(C#N)ncn2-c2cnc(Nc3ccc(C(=O)NC4CCN(C5CCN(CC6CC6)CC5)CC4)cc3OC)nc2N1C1CCCC1
69 nM
CCN(Cc1cc(Nc2nc(C)cn3c(-c4cn[nH]c4)cnc23)sn1)C(C)(C)CO
22.7 nM
ClCc1cccc2c(CCl)cccc12
1860 nM

====

System: SW-620 colon
MEASUREMENT_NOTES: NCI tumour cell line growth inhibition, 48 h
ASSAY_READOUT: TGI

COc1ccc(C23C(=O)c4ccccc4N2O[C@H]2C(=O)N(c4ccccc4)C(=O)[C@H]23)cc1 (stereo not given in full)
> 100 µM
COC(=O)/C=C\COCC1C2CCC(=O)C21 (stereo not given)
> 25 µM
CC(CC[C@@H](O)C(C)(C)O)C1[C@@H](O)CC2(C)C3CC(O)C4C(C)(C)[C@@H](OC5OC(CO)C(O)C(O)C5O)CC[C@@]45C[C@@]35CC[C@]12C (stereo not given in full)
> 10 µM
OC(Cc1ccncc1)C(Cl)(Cl)Cl (stereo not given)
> 100 µM
COC(=O)C1=C(C)C(=O)[C@]23C(CCCC[C@H]12)C(=O)[C@H](C(=O)OC)C3C (stereo not given in full)
> 100 µM

====

Tested on: HCC-2998 colon
MEASUREMENT_NOTES: NCI tumour cell line growth inhibition, 48 h; in the data active = GI50 below about 0.43 µM; inactive = the rest
Classes used: active, inactive

CCN(Cc1cc(Nc2nc(C)cn3c(-c4cn[nH]c4)cnc23)sn1)C(C)(C)CO
active
COc1ccc(/C=C/C(=O)c2cc(OC)c(OC)c(OC)c2)cc1OCc1cn(Cc2ccc(F)cc2)nn1
inactive
CCCCCCCCNc1cc2c3c(c1)CCCN3CCC2
inactive
CCN(Cc1ccc(Cl)cc1)c1ccc(CO)c(Cl)c1
inactive

====

System: MDA-MB-435
MEASUREMENT_NOTES: NCI tumour cell line growth inhibition, 48 h
# reported TGI; entries follow
ASSAY_READOUT: TGI

CN1CCN(C(=S)N(C(=O)c2ccc(Cl)cc2)c2ccccc2)CC1
> 100 µM
CCOC(=O)c1c(C)nc2c(c1N)CC(=O)N2Cc1ccc(OC)cc1
> 100 µM
CC(C)Cn1cnc2c(SCc3ccc(Cl)cc3Cl)nc(N)nc21
> 100 µM
O=C1N=C(SC(SC2=NC(=O)C3(NN2)c2ccccc2-c2ccccc23)=C(SC2=NC(=O)C3(NN2)c2ccccc2-c2ccccc23)SC2=NC(=O)C3(NN2)c2ccccc2-c2ccccc23)NNC12c1ccccc1-c1ccccc12
> 10 µM
CCOc1cccc(/C=N/N=C2\C(=O)Nc3c(Cl)cc(Cl)cc32)c1O
> 100 µM
O=NN1C(c2ccccc2)CC(=NO)CC1c1ccccc1 (configuration not stated)
> 100 µM
COC(=O)C(Cc1ccccc1)NP(=O)(O)OCC1OC(n2cc(Br)c(=O)[nH]c2=O)CC1O (configuration not stated)
> 100 µM
O=C(O)c1n[nH][nH]c1=S
> 100 µM
O=C(Nc1ccc([As](=O)(O)O)cc1)Nc1cccc(Cl)c1Cl
> 100 µM
Cc1cc2c(cc1Cl)SC(NNC(=O)c1ccco1)=NS2(=O)=O
> 10 µM
O=C(O)c1cc(CC2Cc3cc4c(cc3C2=O)CCC4)cc2c1CCC2 (configuration not stated)
> 100 µM
COC(=O)[C@H](Cc1ccccc1)NP(=O)(OCCC#N)OCC1OC(n2cc(C)c(=O)[nH]c2=O)CC1N=[N+]=[N-] (some centres not stated)
> 100 µM

====

System: SK-MEL-5 melanoma
MEASUREMENT_NOTES: NCI tumour cell line growth inhibition, 48 h
Consider the following molecules and their measured TGI readings.
ASSAY_READOUT: TGI

COc1cc(C(O)CCBr)c(OC)cc1C (stereo unspecified)
> 38 µM
NCCCOc1ccc([N+](=O)[O-])cc1Cl
> 100 µM
C=C(C)[C@@H]1CC[C@]2(C)CC[C@]3(C)[C@H](CC[C@@H]4[C@@]5(C)CC[C@H](O)C(C)(C)[C@@H]5CC[C@]43C)[C@@H]12
> 100 µM
O=NN1C(c2ccccc2)CC(=NO)CC1c1ccccc1 (stereo unspecified)
> 100 µM
Cc1ccc(NCC(=O)N2CC(=O)Nc3ccccc32)c(C)c1
> 100 µM
CC1=NN(c2cccc(Cl)c2)C(=N/c2nc3ccccc3s2)/C1=C\c1ccc(Cl)cc1
32 µM
CN(Cc1ccccc1)C(=NC#N)N(Cc1ccccc1)Cc1ccccc1
33.3 µM
CCOc1cccc(/C=N/N=C2\C(=O)Nc3c(Cl)cc(Cl)cc32)c1O
> 100 µM
C[C@]12CC[C@@H]3c4ccc(O)cc4CC[C@H]3[C@@H]1CC[C@@H]2OP(=O)(O)O
> 100 µM
CCCCCC(C/C=N/N(C)C)C(O)(C(F)(F)F)C(F)(F)F (stereo unspecified)
30.7 µM
N#C[C@@H](c1nc2ccccc2s1)c1ncccc1[N+](=O)[O-]
37.3 µM
O/N=C1/C(=C/c2ccc3c(c2)OCO3)CCCC1C(NO)c1ccc2c(c1)OCO2 (stereo unspecified)
32.3 µM
COC(=O)[C@H](Cc1ccccc1)NP(=O)(OCCC#N)OCC1OC(n2cc(C)c(=O)[nH]c2=O)CC1N=[N+]=[N-] (stereo partly specified)
> 100 µM
CC[C@H](CCCC[C@H]1CC[C@@H]2CC(=O)C[C@H]12)OC
93 µM
COc1ccc(/C=N/N=C(\N)NO)cc1O
> 100 µM
CSC(=Nc1nnc(-c2ccc([N+](=O)[O-])cc2)s1)SC
> 100 µM
